target: Acetylcholinesterase (Electrophorus electricus, UniProt O42275)
Sequence (O42275 whole entry): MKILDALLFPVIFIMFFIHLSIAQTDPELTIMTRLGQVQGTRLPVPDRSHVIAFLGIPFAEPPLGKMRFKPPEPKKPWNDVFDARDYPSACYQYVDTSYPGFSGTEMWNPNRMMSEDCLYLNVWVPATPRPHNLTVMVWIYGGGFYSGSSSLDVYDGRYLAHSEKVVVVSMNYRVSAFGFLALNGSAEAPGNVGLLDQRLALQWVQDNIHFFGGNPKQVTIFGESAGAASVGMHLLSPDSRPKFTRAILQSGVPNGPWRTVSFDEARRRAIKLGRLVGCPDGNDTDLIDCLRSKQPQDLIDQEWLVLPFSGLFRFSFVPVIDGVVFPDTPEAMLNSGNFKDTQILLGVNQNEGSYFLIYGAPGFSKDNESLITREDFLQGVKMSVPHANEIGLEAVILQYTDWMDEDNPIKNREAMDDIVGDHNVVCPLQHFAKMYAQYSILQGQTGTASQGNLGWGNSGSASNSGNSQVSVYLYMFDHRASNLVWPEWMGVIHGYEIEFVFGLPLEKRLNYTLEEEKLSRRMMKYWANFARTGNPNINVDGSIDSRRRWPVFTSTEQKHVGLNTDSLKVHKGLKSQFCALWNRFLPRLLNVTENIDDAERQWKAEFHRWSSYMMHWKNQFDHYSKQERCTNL
outcome measure: Ki (nM)
// note: answer is a bare numeric in nM

Prompt: Quick one: Ki for Brc1ccc(Cn2cc(CNC34CC5CC(CC(C5)C3)C4)nn2)cc1 ?
Response: 26
